Provenance of the data: ChEMBL document CHEMBL2057096

test: Half life in mouse; format: ADME, organism-based; conditions: in vivo
The entries below come with measured half-life values attached.

COMPOUND_STRING | half-life [h]
CCc1c(CCCC(=O)O)cccc1-c1cnc(-c2ccc(OC(C)C)c(C#N)c2)s1 | 3.6
CCc1c(CCN2CCC(C(=O)O)CC2)cccc1-c1nsc(-c2ccc(CC(C)C)c(C#N)c2)n1 | 5.3
CCc1c(CCCC(=O)O)cccc1-c1nsc(-c2ccc(OC(C)C)c(C#N)c2)n1 | 1.5
CCc1c(CCN2CCC(C(=O)O)CC2)cccc1-c1nsc(-c2ccc(OC(C)C)c(Cl)c2)n1 | 15.6
CCc1c(CCCC(=O)O)cccc1-c1cnc(-c2ccc(OC(C)C)c(C#N)c2)nc1 | 8
CCc1c(CCCC(=O)O)cccc1-c1nnc(-c2ccc(OC(C)C)c(C#N)c2)s1 | 3.8

----------
biological target: Cytochrome P450 3A4 (Homo sapiens, UniProt P08684)
Sequence (P08684 whole entry): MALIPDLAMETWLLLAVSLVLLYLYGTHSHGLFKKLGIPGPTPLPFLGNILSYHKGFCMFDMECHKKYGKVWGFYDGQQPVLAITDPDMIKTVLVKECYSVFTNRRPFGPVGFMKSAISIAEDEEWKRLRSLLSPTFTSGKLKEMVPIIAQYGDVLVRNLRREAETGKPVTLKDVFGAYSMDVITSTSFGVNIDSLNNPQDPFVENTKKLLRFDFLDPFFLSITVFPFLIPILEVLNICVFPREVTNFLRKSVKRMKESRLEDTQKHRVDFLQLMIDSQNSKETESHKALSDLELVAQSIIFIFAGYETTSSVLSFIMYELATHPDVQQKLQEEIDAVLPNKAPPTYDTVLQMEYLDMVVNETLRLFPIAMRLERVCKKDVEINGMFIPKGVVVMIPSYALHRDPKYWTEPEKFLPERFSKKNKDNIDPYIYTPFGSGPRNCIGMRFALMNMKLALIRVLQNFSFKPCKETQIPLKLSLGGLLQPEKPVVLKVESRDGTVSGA
pIC50: −log10 of the molar value.
ASSAY_METRIC: pIC50

COMPOUND_STRING | MEASURED_RESULT
CCc1c(CCCC(=O)O)cccc1-c1noc(-c2ccc(OC(C)C)c(C#N)c2)n1 | < 5.00
CCc1c(CCN2CCC(C(=O)O)CC2)cccc1-c1nsc(-c2ccc(OC(C)C)c(Cl)c2)n1 | < 5.00

----------
Sequence of the target: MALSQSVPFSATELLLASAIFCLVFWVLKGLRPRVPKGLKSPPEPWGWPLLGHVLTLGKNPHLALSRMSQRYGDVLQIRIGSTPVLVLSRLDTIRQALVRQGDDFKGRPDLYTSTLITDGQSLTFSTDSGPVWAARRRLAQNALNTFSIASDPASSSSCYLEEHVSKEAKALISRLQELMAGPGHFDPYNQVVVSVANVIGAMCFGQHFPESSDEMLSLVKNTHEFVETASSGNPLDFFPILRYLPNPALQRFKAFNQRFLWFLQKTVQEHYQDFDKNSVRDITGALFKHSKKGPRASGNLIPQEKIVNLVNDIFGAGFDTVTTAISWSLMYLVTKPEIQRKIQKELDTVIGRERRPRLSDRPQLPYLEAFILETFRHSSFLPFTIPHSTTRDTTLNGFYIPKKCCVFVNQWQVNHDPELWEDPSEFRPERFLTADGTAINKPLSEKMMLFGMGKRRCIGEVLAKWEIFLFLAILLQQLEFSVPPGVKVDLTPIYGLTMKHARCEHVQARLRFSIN
pIC50: −log10 of the molar value.
Quick reference: pIC50 of the listed items.
ASSAY_METRIC: pIC50

COMPOUND_STRING | MEASURED_RESULT
CCc1c(CCN2CCC(C(=O)O)CC2)cccc1-c1nsc(-c2ccc(OC(C)C)c(Cl)c2)n1 | < 5.00
CCc1c(CCN2CCC(C(=O)O)CC2)cccc1-c1nsc(-c2ccc(CC(C)C)c(C#N)c2)n1 | < 5.00
CCc1c(CCCC(=O)O)cccc1-c1nnc(-c2ccc(OC(C)C)c(C#N)c2)s1 | < 5.00

----------
Examples of compounds with documented EC50 follow.
target: Sphingosine 1-phosphate receptor 1 (Homo sapiens, UniProt P21453); assay: Agonist activity against S1P1 receptor by cell based FRET assay
Sequence (P21453 whole entry): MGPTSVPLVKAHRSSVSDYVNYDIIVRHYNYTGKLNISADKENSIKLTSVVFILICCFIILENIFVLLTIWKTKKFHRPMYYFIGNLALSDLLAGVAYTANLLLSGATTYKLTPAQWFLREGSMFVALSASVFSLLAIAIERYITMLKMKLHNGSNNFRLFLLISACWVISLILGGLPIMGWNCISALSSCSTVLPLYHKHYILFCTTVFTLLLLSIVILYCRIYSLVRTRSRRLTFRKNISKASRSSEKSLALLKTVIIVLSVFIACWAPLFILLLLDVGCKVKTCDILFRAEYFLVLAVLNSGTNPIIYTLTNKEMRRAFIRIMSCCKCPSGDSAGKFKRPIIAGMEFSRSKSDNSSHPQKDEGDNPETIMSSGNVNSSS
ASSAY_METRIC: EC50 (nM)

COMPOUND_STRING | READOUT_UNIT | SIGN | MEASURED_RESULT
CCc1c(CCCC(=O)O)cccc1-c1nsc(-c2ccc(OC(C)C)c(C#N)c2)n1 | nM | = | 2.51
CCc1c(CCN2CC(C(=O)O)C2)cccc1-c1nsc(-c2ccc(CC(C)C)c(C#N)c2)n1 | nM | = | 0.794
CCc1c(CCCC(=O)O)cccc1-c1nsc(-c2cnc(OC(C)C)c(C(F)(F)F)c2)n1 | nM | = | 5.01
CCc1c(CCCC(=O)O)cccc1-c1nsc(-c2ccc(CC(C)C)c(C#N)c2)n1 | nM | = | 1.26
CCc1c(CCN2CC(C(=O)O)C2)cccc1-c1nsc(-c2ccc(OC(C)C)c(C(F)(F)F)c2)n1 | nM | = | 0.251
CCc1c(CCCC(=O)O)cccc1-c1nnc(-c2ccc(OC(C)C)c(C#N)c2)s1 | nM | = | 1.26
CCc1c(CCCC(=O)O)cccc1-c1nsc(-c2ccc(N3CCOCC3)c(C(F)(F)F)c2)n1 | nM | = | 126
CCc1c(CCCC(=O)O)cccc1-c1cnc(-c2ccc(OC(C)C)c(C#N)c2)s1 | nM | = | 3.16
CCc1c(CCCC(=O)O)cccc1-c1ccc(-c2ccc(OC(C)C)c(C#N)c2)cn1 | nM | = | 31.6
CCc1c(CCNCC(=O)O)cccc1-c1nsc(-c2ccc(OC(C)C)c(C(F)(F)F)c2)n1 | nM | = | 0.0158
CCc1c(CCCC(=O)O)cccc1-c1nc(-c2ccc(OC(C)C)c(C#N)c2)ns1 | nM | = | 1.26
CCc1c(CCN2CC(C(=O)O)C2)cccc1-c1nsc(-c2ccc(OC(C)C)c(Cl)c2)n1 | nM | = | 0.251
CCc1c(CN(C)CC(=O)O)cccc1-c1nsc(-c2ccc(OC(C)C)c(C(F)(F)F)c2)n1 | nM | = | 10
CCc1c(CCN2CCCCC2)cccc1-c1nsc(-c2ccc(CC(C)C)c(C#N)c2)n1 | nM | = | 1580
CCc1c(CCCC(=O)O)cccc1-c1ccc(-c2ccc(OC(C)C)c(C#N)c2)cc1 | nM | = | 1.58
CCc1c(CCCC(=O)O)cccc1-c1cc(-c2ccc(OC(C)C)c(C#N)c2)ncn1 | nM | > | 3160
CCc1c(CCCC(=O)O)cncc1-c1nsc(-c2ccc(CC(C)C)c(C#N)c2)n1 | nM | = | 398
CCc1c(CCCC(=O)O)cccc1-c1cnc(-c2ccc(OC(C)C)c(C#N)c2)nc1 | nM | = | 1
CCc1c(CCCC(=O)O)cccc1-c1nsc(-c2ccc(OC(C)C)c(C(F)(F)F)c2)n1 | nM | = | 2
